Target: phospho p-38 alpha kinase (Homo sapiens, UniProt Q16539)
Construct: purchased Panvera
Sequence (Q16539 whole entry): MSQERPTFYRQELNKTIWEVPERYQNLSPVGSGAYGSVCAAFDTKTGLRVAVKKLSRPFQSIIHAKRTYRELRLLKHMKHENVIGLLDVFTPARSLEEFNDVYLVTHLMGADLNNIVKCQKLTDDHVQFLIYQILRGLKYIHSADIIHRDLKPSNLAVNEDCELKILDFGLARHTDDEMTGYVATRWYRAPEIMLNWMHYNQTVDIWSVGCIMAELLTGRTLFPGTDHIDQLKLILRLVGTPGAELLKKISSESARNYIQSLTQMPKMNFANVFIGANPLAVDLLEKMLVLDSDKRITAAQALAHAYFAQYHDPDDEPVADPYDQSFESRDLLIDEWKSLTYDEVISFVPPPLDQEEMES
Test: P-38 alpha kinase assay (spectrophotometric, pyruvate kinase/lactate dehydrogenase coupled)
Type: biochemical
Conditions: Table 3; rates from […] to 2 h time frame
pIC50: −log10 of the molar value.
Assay readout: pIC50

# annotated cases, reported pIC50 shown
CC(C)(C)c1cc(NC(=O)Nc2ccc(Cl)cc2)n(-c2cccc(CN3C(=O)NC(=O)C3=O)c2)n1
6.64
CC(C)(C)c1cc(NC(=O)Nc2ccccc2F)n(-c2cccc(CO)c2)n1
7.05
COc1cccc(NC(=O)Nc2cc(-c3ccccc3)nn2-c2cccc(OC)c2)c1
5.66
COc1cccc(NC(=O)Nc2cc(C(C)(C)C)nn2-c2cccc(C#N)c2)c1
6.41
CN1CCN(C(=O)NCc2cccc(-n3nc(C(C)(C)C)cc3NC(=O)Nc3cccc4ccccc34)c2)CC1
7.40

I = CCOC(=O)CCc1cccc(-n2nc(C(C)(C)C)cc2NC(=O)Nc2cccc(Cl)c2Cl)c1
II = CC(C)(C)c1cc(NC(=O)Nc2ccc(Cl)cc2)n(-c2cccc(CNC(=O)N3CCCC3)c2)n1
Hey, which is lower on measured pIC50, I or II ? Respond using the label that marks the chosen record.
II
